system: HepG2; assay: cytotoxicity call (relative viability < 0.9); details: 10 µM
Among all 39,000 compounds or so, about 3,300 (8.5%) were called active. The sample holds actives, similar compounds and a random draw of the others, so the mix is not that of the screen.
Just give me one of these, please: label 1 for active, label 0 for inactive

MOLECULE: Cc1nc(-c2ccc(-c3ccc(C(=O)N4CCc5cc6c(cc54)C4(CCN(C)CC4)CO6)cc3)c(C)c2)no1
TARGET_DESC: HepG2
CATEGORY: label 1
--
MOLECULE: CCC(C(N)=O)N1CCCC1=O (stereo not given)
TARGET_DESC: HepG2
CATEGORY: label 0
--
MOLECULE: O=C([C@H]1CCCO1)N1CCCN2CCC[C@H]2C1
TARGET_DESC: HepG2
CATEGORY: label 0
--
MOLECULE: CN(C)[C@@H](CN)c1cn(C)c2ccccc12
TARGET_DESC: HepG2
CATEGORY: label 0
--
MOLECULE: O=C1C=CC(=O)c2c(O)cccc21
TARGET_DESC: HepG2
CATEGORY: label 1

In this assay, the call recorded for O[C@H]1CNC[C@@H]1N1CCCC1 was what?
label 0

Next molecule: CN1CCN(c2ccccc2CN)CC1
label 0

Next molecule: CCN(CC)CCOC(=O)C(O)(c1ccccc1)c1ccccc1.Cl
label 0

Next molecule: Cc1cc(CCN)on1
label 0

Next molecule: CN1C(=O)NC(=O)/C(=C\C=C\c2ccco2)C1=O
label 0

Next molecule: O=C(O)[C@H]1C[C@H]2CCCCN2C1
label 0

Next molecule: C=CCC1(O)CCC2C3CCC4=CC(=O)CCC4=C3C=CC21C (stereo not given)
label 0

Next molecule: C[C@H]1CN([C@@H](C)CO)C(=O)c2c(c3ccccc3n2C)-c2ccccc2CO[C@@H]1CN(C)C(=O)Oc1ccccc1
label 0

Next molecule: CCCN1CC(CSC)CC2c3cccc4[nH]cc(c34)CC21.CS(=O)(=O)O (stereo not given)
label 0

Next molecule: CC(=O)[O][Cd][O]C(C)=O
label 0

----------
tested on: HepG2; test: cytotoxicity call (relative viability < 0.9); conditions: 10 µM
Out of some 39,000 compounds screened, about 3,300 (8.5%) were called active. This excerpt belongs to a sample that is enriched for actives.
ASSAY_ENDPOINT: cytotoxicity call

Example cases with answers are listed next.
MOLECULE: COc1cc2c(cc1OC)C1C(=O)c3ccc4c(c3OC1CO2)CC(C(C)C)O4 (centres undefined)
EXPERIMENTAL_RESULT: active
//
MOLECULE: C[N+]1(C)C2CC(OC(=O)C(CO)c3ccccc3)CC1C1OC12.[Br-] (centres undefined)
EXPERIMENTAL_RESULT: inactive
//
MOLECULE: CN1CCc2cc([C@H](CN)N(C)C)ccc21
EXPERIMENTAL_RESULT: inactive
//
MOLECULE: CCCC(=O)O[C@H]1CN2CC[C@H](O)[C@@H]2[C@@H](O)[C@@H]1O
EXPERIMENTAL_RESULT: inactive

Could you tell me which cytotoxicity call is on file for CCCCCCCCCC(=O)O[C@@H]1[C@@H](C)[C@]2(O)[C@@H](C=C(CO)C[C@]3(O)C(=O)C(C)=C[C@@H]23)[C@@H]2C(C)(C)[C@@]12OC(=O)CCCCCCCCC ?
active

Next molecule: Cl.NCCc1ccccc1
inactive

Next molecule: O=c1cccc2n1C[C@@H]1CNC[C@H]2C1
inactive

Next molecule: CNCC(O)c1ccc(O)cc1.CNCC(O)c1ccc(O)cc1.O=C(O)C(O)C(O)C(=O)O (centres undefined)
inactive

Next molecule: N#Cc1cccnc1
inactive

Next molecule: [N-]=[N+]=CC(=O)OCC(N)C(=O)O (centres undefined)
active

Next molecule: [N-]=[N+]=NCC(=O)Nc1ccon1
inactive

Next molecule: C[CH2][Hg][S]c1ccccc1C(=O)[O-].[Na+]
active

----------
system: HepG2; experiment: cytotoxicity call (relative viability < 0.9); settings: 10 µM
In all, about 39,000 compounds went through this assay and about 3,300 (8.5%) were called active. The list comes from a sample in which actives are over-represented; it also holds close analogues and randomly drawn compounds.
ASSAY_ENDPOINT: cytotoxicity call

MOLECULE: CC[C@@H](C)NC=C1C(=O)NC(=O)NC1=O
cytotoxicity call: inactive

MOLECULE: C1CCN2C(C3N4CCCCN34)N2C1 (configuration not stated)
cytotoxicity call: inactive

MOLECULE: CNC(=O)Oc1ccc2c(c1)[C@]1(C)CCN(C)[C@@H]1N2C.CNC(=O)Oc1ccc2c(c1)[C@]1(C)CCN(C)[C@@H]1N2C.O=S(=O)(O)O
cytotoxicity call: inactive

MOLECULE: O=C(c1ccno1)N1C[C@@H]2CCN[C@@H]2C1
cytotoxicity call: inactive

MOLECULE: CC(=O)OCC1=C(C(=O)O)N2C(=O)[C@@H](N)[C@H]2SC1
cytotoxicity call: inactive

MOLECULE: O=C(NC[C@H]1CC[C@@H]2NC[C@@H]2O1)C1CCCC1
cytotoxicity call: inactive

MOLECULE: CC(C)(C)[C@]1(O)C[C@@H]2OC(=O)C[C@]23C(=O)O[C@@H]2OC(=O)[C@H](O)[C@]231
cytotoxicity call: inactive

MOLECULE: CN1CCC2(C)c3cc(O)ccc3N(C)C12.O=C(O)C=CC(=O)O (configuration not stated)
cytotoxicity call: active

Could you tell me which cytotoxicity call is on file for C[C@@H](N)Cc1c[nH]c2ccc(OCc3cccs3)cc12 ?
inactive

Next molecule: Cc1o[nH]c(=O)c1C[C@@H](N)C(=O)O
inactive

Next molecule: C#CC(C)(O)CC (configuration not stated)
inactive

Next molecule: CNC(=O)Oc1ccc2c(c1)C1(C)CCN(C)C1N2C.O=C(O)c1ccccc1O (configuration not stated)
active

----------
test system: HepG2; assay: cytotoxicity call (relative viability < 0.9); conditions: 10 µM
The whole screen tested about 39,000 compounds, of which about 3,300 (8.5%) were called active. The sample as a whole holds a higher share of actives than the screen did.
Just give me one of these, please: true (1) (active), false (0) (inactive)

MOLECULE: CN1CCN(Cc2ccc[nH]2)CC1
CATEGORY: false (0)
--
MOLECULE: Cc1ccc(C)c(C(=O)[C@H](N)CC(C)C)c1
CATEGORY: false (0)
--
MOLECULE: O=C1C=C2C(=CCO[C@@H]2O)O1
CATEGORY: false (0)
--
MOLECULE: CC[C@@H]1/C=C/C=C/C[C@H](C)[C@@H](O)[C@](C)(O)C(=O)[C@H](C)[C@@H](O)[C@H](C)C(=O)[C@H](C)[C@@H](O)[C@H](C)/C=C/C(=O)O[C@H]2[C@@H](C)[C@@H](CC1)O[C@@]1(CC[C@@H](C)[C@@H](C[C@H](C)O)O1)[C@@H]2C
CATEGORY: false (0)
--
MOLECULE: CN(C)C(=O)CN1C[C@H]2CON[C@@H]2C1
CATEGORY: false (0)
--
MOLECULE: CNc1ccccc1C(=O)O
CATEGORY: false (0)
--
MOLECULE: COc1ccc(N=[N+]=[N-])cc1
CATEGORY: false (0)
--
MOLECULE: ClC(Cl)=C(c1ccc(Cl)cc1)c1ccc(Cl)cc1
CATEGORY: false (0)

In this assay, the call recorded for Oc1ccc(Cl)cc1 was what?
false (0)

Next molecule: N#Cc1nn(-c2c(Cl)cc(C(F)(F)F)cc2Cl)c(N)c1S(=O)C(F)(F)F (configuration not stated)
true (1)

Next molecule: C[C@H]1CN([C@@H](C)CO)C(=O)CCCn2cc(nn2)CO[C@@H]1CN(C)C(=O)Oc1ccc2ccccc2c1
false (0)

Next molecule: C=C(C)[C@H]1CN[C@H](C(=O)O)[C@@H]1CC(=O)O
false (0)

----------
test system: HepG2; assay: cytotoxicity call (relative viability < 0.9); conditions: 10 µM
In all, about 39,000 compounds went through this assay and about 3,300 (8.5%) were called active. Only a selection was taken, and actives are over-represented in it overall.
ASSAY_ENDPOINT: cytotoxicity call

Example cases with answers are listed next.
COMPOUND: C[C@]12CC[C@@H]3c4ccc(OC(=O)N(CCCl)CCCl)cc4CC[C@H]3[C@@H]1CC[C@@H]2OP(=O)(O)O
cytotoxicity call: inactive

COMPOUND: CC1=C[C@H]2[C@]3(O)[C@H](C=C(CO)C[C@]2(O)C1=O)[C@H]1C(C)(C)[C@@]1(O)[C@H](O)[C@@H]3C
cytotoxicity call: inactive

COMPOUND: CC(C)c1ccc2c(c1)[C@H](O)[C@H](N)CCO2
cytotoxicity call: inactive

COMPOUND: CCOC1OC2OC3(C)CCC4C(C)CCC(C1C)C24OO3 (configuration not stated)
cytotoxicity call: active

COMPOUND: Cc1nnc([C@H]2CCCNC2)o1
cytotoxicity call: inactive

Could you tell me which cytotoxicity call is on file for CN1C2CCC1CC(OC(=O)C(CO)c1ccccc1)C2.O=S(=O)(O)O (configuration not stated) ?
inactive

Next compound: COC12CC(COC(=O)c3cncc(Br)c3)CN(C)C1Cc1cn(C)c3cccc2c13 (configuration not stated)
active
